- Tested on: MOLT-4
- PROCEDURE_TEXT: three day MTT cytotoxicity assay
- Type: cell-based, human
- EXPERIMENTAL_CONDITIONS: MOLT-4 (leukemia), 72 hours
QUANTITY_KIND: ED50 (ug/ml) MOLT4

## Input For the compound shown here, COc1cc(C2=C(c3ccc(SC)cc3)CC(O[Si](C)(C)C(C)(C)C)C2=O)cc(OC)c1OC (stereo not drawn) , give the reported ED50 (ug/ml) MOLT4.
## Output <1.0 µg/mL

## Input Now the compound COc1ccc(C2=C(c3cc(OC)c(OC)c(OC)c3)C(=O)C(O)C2)cc1 (stereo not drawn)
## Output <1.0 µg/mL

## Input Please give the result for COc1ccc(C2=C(c3cc(OC)c(OC)c(OC)c3)C(=NO)C(O)C2)cc1 (stereo not drawn) too.
## Output <1.0 µg/mL
